pIC50: −log10 of the molar value.
System: Dihydroorotate dehydrogenase (quinone), mitochondrial (Homo sapiens, UniProt Q02127) | Read-out: pIC50 | Origin: multiple publications
parameter: pIC50

> print(dat)
                               entry.smiles                        measurement.target  recorded.result
1  Cc1cnccc1NC(=O)c1cc(F)c(-n2nc3n(c2=O)CCC2(CC2)C3)cc1O[C@@H](C)C(F)(F)F  Dihydroorotate dehydrogenase (quinone), mitochondrial (Homo sapiens, UniProt Q02127)           > 7.30
2  COc1ccnc(C)c1NC(=O)c1cc(F)c(-n2nc3n(c2=O)CCC2(CC2)C3)cc1O[C@@H](C)C(F)(F)F  Dihydroorotate dehydrogenase (quinone), mitochondrial (Homo sapiens, UniProt Q02127)           > 7.30
3  C[C@H](Oc1cc(-n2nc3n(c2=O)CCC2(CC2)C3)c(F)cc1C(=O)Nc1c(F)cccc1Cl)C1CC1  Dihydroorotate dehydrogenase (quinone), mitochondrial (Homo sapiens, UniProt Q02127)           > 7.30
4       Cc1cc(Nc2ccc3c(=O)ccoc3c2)n2ncnc2n1  Dihydroorotate dehydrogenase (quinone), mitochondrial (Homo sapiens, UniProt Q02127)           < 3.70
5  Cc1nc2c(C(=O)O)cc(-c3ccc(-c4c(C)cccc4C)cc3)cc2[nH]1  Dihydroorotate dehydrogenase (quinone), mitochondrial (Homo sapiens, UniProt Q02127)     7.00 to 8.00

----------
System: Dihydroorotate dehydrogenase (quinone), mitochondrial (Homo sapiens, UniProt Q02127) | Read-out: IC50 | Origin: multiple publications
parameter: IC50 (nM)

> print(dat)
                                    compound                        measurement.target  parameter  qualifying.sign  recorded.result
 1  C[C@H](Oc1cc(-n2nc3n(c2=O)CCC2(CC2)C3)c(F)cc1C(=O)Nc1cccc(Cl)c1)C(F)(F)F  Dihydroorotate dehydrogenase (quinone), mitochondrial (Homo sapiens, UniProt Q02127)       IC50                <               50
 2  C[C@H](Oc1cc(-n2nc3n(c2=O)CCCC2(CC2)C3)c(F)cc1C(=O)Nc1c(F)cccc1Cl)C(F)(F)F  Dihydroorotate dehydrogenase (quinone), mitochondrial (Homo sapiens, UniProt Q02127)       IC50                <               50
 3  Cc1cc(C(=O)O)c2nc(-c3c(F)c(F)c(-c4cccnc4)c(F)c3F)[nH]c2c1  Dihydroorotate dehydrogenase (quinone), mitochondrial (Homo sapiens, UniProt Q02127)       IC50                =               32
 4  CCn1c(CO)nn(-c2cc3c(C(C)C)cn(-c4cc(F)ccc4F)c(=O)c3cc2F)c1=O  Dihydroorotate dehydrogenase (quinone), mitochondrial (Homo sapiens, UniProt Q02127)       IC50                =              2.2
 5  CCn1c(CO)nn(-c2cc3c(C(C)C)cc(-c4cc(OC)ncc4C)nc3cc2F)c1=O  Dihydroorotate dehydrogenase (quinone), mitochondrial (Homo sapiens, UniProt Q02127)       IC50                =              4.8
 6  CCn1c(CO)nn(-c2nc3c(C(C)C)cn(-c4cc(C)ccc4F)c(=O)c3cc2F)c1=O  Dihydroorotate dehydrogenase (quinone), mitochondrial (Homo sapiens, UniProt Q02127)       IC50                =              6.1
 7  Cc1n[nH]c(Cl)c1-c1cc(C(C)C)c2cc(-c3nc(C(C)O)n(C)n3)c(F)cc2n1 (stereo not drawn)  Dihydroorotate dehydrogenase (quinone), mitochondrial (Homo sapiens, UniProt Q02127)       IC50                =              1.6
 8  O=C(O)c1cc(C2CC2)ccc1Nc1cnc(-c2cc(OC(F)(F)F)ccc2F)nc1  Dihydroorotate dehydrogenase (quinone), mitochondrial (Homo sapiens, UniProt Q02127)       IC50                =               21
 9  C=C(C)[C@@H]1CN(c2c(C)cc(C)nc2Cl)C(=O)c2cc(F)c(-n3nc(CO)n(CC)c3=O)cc21 (single isomer, unassigned; atropisomer 1)  Dihydroorotate dehydrogenase (quinone), mitochondrial (Homo sapiens, UniProt Q02127)       IC50                >              100
10  Cn1nnc2cc(-c3ccc(-c4ccc(CN5CCOCC5)cc4)cc3)cc(C(=O)O)c21  Dihydroorotate dehydrogenase (quinone), mitochondrial (Homo sapiens, UniProt Q02127)       IC50                >             1000

----------
System: Dihydroorotate dehydrogenase (quinone), mitochondrial (Homo sapiens) | Read-out: IC50 | Origin: multiple publications
parameter: IC50

> print(dat)
                               entry.smiles                        measurement.target  recorded.result
1  CCC[C@H](C)Oc1cc(-n2nc3n(c2=O)CC2(CC2)C3)c(F)cc1C(=O)Nc1c(F)cccc1Cl  Dihydroorotate dehydrogenase (quinone), mitochondrial (Homo sapiens)          < 50 nM
2  C[C@H](Oc1cc(-n2nc3n(c2=O)CCC2(CC2)C3)c(F)cc1C(=O)Nc1ccc(F)cc1Cl)C(F)(F)F  Dihydroorotate dehydrogenase (quinone), mitochondrial (Homo sapiens)          < 50 nM
3  Cn1nnc2cc(-c3c(F)c(F)c(-c4cccc(CN5CCOCC5)c4)c(F)c3F)cc(C(=O)O)c21  Dihydroorotate dehydrogenase (quinone), mitochondrial (Homo sapiens)   101 to 1000 nM
4  Cc1cc(C(=O)O)c2nc(-c3c(F)c(F)c(-c4ccc(OCc5ccccc5)cc4)c(F)c3F)[nH]c2c1  Dihydroorotate dehydrogenase (quinone), mitochondrial (Homo sapiens)            48 nM
